# test_target: HLA-B5101 (Homo sapiens, UniProt P01889, A329T/A93T/A95T/C349S/D138N/D201E/D98Y/E187L/E204Q/E69T/G107R/I218V/K202T/L105A/L119W/N104I/Q94N/R106L/R155S/R180L/S101N/S121T/S35A/S48A/V306I/V36M/Y195H/Y91F)
# assay_details: Competitive peptide binding assay, CIR-B5101
# assay_setup: HMy2.CIR-B5101 cells, reference Cy5-[…], class from inhibition at 5 and 15 μM, flow cytometry MFI; read-out: Binding affinity with HLA-B5101
pIC50: −log10 of the molar value. Peptide text beside a SMILES is read from it.
measure: pIC50

molecule="CC(C)C[C@H](NC(=O)[C@H](CCC(N)=O)NC(=O)[C@H](CC(=O)O)NC(=O)[C@H](C)NC(=O)[C@@H](N)Cc1c[nH]cn1)C(=O)N[C@H](C(=O)N1CCC[C@H]1C(=O)N[C@H](C(=O)N[C@@H](Cc1c[nH]c2ccccc12)C(=O)O)[C@@H](C)O)[C@@H](C)O [Epitope Y313] (H-HADQLTPTW-OH; N-terminus and C-terminus assumed)" measure=pIC50 reading="< 4.82"
molecule="CSCC[C@H](NC(=O)[C@H](CCSC)NC(=O)[C@H](CO)NC(=O)[C@H](Cc1ccccc1)NC(=O)[C@H](Cc1c[nH]cn1)NC(=O)[C@H](CCCCN)NC(=O)[C@H](CCCNC(=N)N)NC(=O)[C@H](CC(C)C)NC(=O)[C@@H](N)Cc1ccc(O)cc1)C(=O)O [Epitope Y28] (H-YLRKHFSMM-OH; N-terminus and C-terminus assumed)" measure=pIC50 reading="< 4.82"
molecule="CC[C@H](C)[C@H](NC(=O)CNC(=O)[C@H](CC(=O)O)NC(=O)[C@H](CCCCN)NC(=O)[C@H](CC(N)=O)NC(=O)[C@H](C)NC(=O)CN)C(=O)N[C@H](C(=O)N[C@@H](Cc1c[nH]c2ccccc12)C(=O)O)[C@@H](C)CC [Epitope Y301] (H-GANKDGIIW-OH; N-terminus and C-terminus assumed)" measure=pIC50 reading="< 4.82"
molecule="CC(C)C[C@H](NC(=O)[C@@H](NC(=O)[C@@H](NC(=O)CNC(=O)[C@H](CCC(N)=O)NC(=O)[C@@H]1CCCN1C(=O)[C@H](CC(C)C)NC(=O)[C@H](CCC(N)=O)NC(=O)[C@@H](N)CC(C)C)[C@@H](C)O)[C@@H](C)O)C(=O)O [Epitope Y61] (H-LQLPQGTTL-OH; N-terminus and C-terminus assumed)" measure=pIC50 reading="4.82 to 5.30"
